test system: Candida albicans; assay: In vitro antifungal activity against Candida albicans B311.; assay type: functional
Reported MIC values for the following molecules.
Return type: number; implicit unit µg/mL.

stdin: If you can, please state the reported MIC value of O=C1c2ccccc2-c2nccc3c2c1nc1ccccc13 .
stdout: 0.39

stdin: # repeat for COc1cnc2c3c(nccc13)C(=O)c1ccccc1-2
stdout: 1.56

stdin: # repeat for Nc1cnc2c3c(nccc13)-c1ccccc1C2=O
stdout: 100

Attention now turns to another entry.
stdin: If you can, please state the reported MIC value of Cc1cnc2c3c(nccc13)C(=O)c1ccccc1-2 .
stdout: 0.39
